src = patent US20100260765A1

- Target Entity: T1, human KDR (VEGFR2) on cells (human, UniProt P35968 20-1356)
- T1 construct: whole, on cells; also called native KDR on HUVEC; endogenously expressed KDR
- T1 sequence (P35968 20-1356): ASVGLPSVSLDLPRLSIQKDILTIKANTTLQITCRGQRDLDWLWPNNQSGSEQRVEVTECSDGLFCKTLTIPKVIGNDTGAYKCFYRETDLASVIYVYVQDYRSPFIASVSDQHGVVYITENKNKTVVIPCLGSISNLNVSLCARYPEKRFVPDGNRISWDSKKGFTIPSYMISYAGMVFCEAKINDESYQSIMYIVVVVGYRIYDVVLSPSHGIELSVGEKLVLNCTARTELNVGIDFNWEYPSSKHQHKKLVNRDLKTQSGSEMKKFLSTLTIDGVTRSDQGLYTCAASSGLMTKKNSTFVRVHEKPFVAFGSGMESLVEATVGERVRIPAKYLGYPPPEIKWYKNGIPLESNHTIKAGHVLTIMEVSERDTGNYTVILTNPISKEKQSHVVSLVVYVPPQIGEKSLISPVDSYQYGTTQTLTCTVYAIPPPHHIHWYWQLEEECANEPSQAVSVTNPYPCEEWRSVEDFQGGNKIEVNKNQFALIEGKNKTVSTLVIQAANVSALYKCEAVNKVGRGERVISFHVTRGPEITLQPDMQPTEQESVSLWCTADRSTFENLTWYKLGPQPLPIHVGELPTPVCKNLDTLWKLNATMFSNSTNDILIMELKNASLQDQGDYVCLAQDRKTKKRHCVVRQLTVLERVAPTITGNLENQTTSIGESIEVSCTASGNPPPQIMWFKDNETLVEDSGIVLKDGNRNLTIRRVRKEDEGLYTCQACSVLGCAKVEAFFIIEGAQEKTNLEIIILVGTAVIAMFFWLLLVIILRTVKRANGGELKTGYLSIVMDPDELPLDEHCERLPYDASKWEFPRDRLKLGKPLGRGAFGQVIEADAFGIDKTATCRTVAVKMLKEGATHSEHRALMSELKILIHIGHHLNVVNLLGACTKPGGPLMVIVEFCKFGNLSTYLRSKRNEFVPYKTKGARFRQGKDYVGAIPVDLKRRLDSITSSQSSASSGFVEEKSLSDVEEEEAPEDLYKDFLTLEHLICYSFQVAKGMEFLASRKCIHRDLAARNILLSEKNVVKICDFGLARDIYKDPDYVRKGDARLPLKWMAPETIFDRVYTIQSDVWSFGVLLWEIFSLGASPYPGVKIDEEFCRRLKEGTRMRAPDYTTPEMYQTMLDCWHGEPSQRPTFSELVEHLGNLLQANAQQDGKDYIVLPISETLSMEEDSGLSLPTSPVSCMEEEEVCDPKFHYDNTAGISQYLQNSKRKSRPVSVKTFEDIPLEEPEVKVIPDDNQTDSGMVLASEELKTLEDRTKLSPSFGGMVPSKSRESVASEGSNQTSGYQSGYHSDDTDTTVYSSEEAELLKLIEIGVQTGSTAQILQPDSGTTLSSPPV
- Assay Procedure: FACS on HUVEC, hybridoma supernatant 1:50
- Experimental: HUVECs were seeded at 15,000 cells/well and incubated with 100 μL of sample supernatant (at 1:50 dilution) for one hour at 4° C. The positive control was goat anti-KDR antibody (R&D Systems, Inc.), and negative controls included irrelevant hybridoma supernatants at the same dilution. The cells were then washed and incubated with Cy5-conjugated goat anti-human antibody at 5 μg/mL and 7-Amino-Actinomycin D (7AAD) at 5 μg/mL for 15 minutes at 4° C. Bound KDR was detected using FACS analysis.
Measurement Name: FACS Geometric Mean

# get_value(readout='FACS Geometric Mean', item= anti-KDR monoclonal antibody 30F6 (antibody, V domains shown, Fully human mAb from XenoMouse (IgG2 or IgG4 strain); hybridoma supernatant) VH: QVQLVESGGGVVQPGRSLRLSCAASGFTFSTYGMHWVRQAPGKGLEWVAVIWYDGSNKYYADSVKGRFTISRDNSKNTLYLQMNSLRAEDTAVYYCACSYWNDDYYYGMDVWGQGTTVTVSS VL: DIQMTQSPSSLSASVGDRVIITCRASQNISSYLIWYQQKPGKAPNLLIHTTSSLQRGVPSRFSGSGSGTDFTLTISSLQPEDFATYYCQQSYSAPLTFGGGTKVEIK )
21

Then anti-KDR monoclonal antibody 27A3 (antibody, V domains shown, Fully human mAb from XenoMouse (IgG2 or IgG4 strain); hybridoma supernatant) VH: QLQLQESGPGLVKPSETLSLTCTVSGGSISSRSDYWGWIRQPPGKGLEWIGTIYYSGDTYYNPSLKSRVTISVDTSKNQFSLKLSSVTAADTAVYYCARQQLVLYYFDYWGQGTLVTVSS VL: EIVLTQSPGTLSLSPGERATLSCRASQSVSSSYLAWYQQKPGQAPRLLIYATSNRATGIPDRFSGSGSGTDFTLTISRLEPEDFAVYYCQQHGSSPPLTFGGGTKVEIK ?
25

Next: anti-KDR monoclonal antibody 22B8 (antibody, V domains shown, Fully human mAb from XenoMouse (IgG2 or IgG4 strain); hybridoma supernatant) VH: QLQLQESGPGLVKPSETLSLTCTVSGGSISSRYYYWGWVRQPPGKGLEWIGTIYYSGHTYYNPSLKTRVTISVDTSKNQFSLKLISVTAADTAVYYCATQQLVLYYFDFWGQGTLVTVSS VL: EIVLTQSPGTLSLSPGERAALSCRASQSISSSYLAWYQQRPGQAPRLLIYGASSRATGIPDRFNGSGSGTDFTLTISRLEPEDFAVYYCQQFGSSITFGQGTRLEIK
24

Record: anti-KDR monoclonal antibody 29H3 (antibody, V domains shown, Fully human mAb from XenoMouse (IgG2 or IgG4 strain); hybridoma supernatant) VH: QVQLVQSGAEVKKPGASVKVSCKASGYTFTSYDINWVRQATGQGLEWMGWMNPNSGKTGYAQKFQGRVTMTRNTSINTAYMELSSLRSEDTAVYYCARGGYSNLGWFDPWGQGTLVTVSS VL: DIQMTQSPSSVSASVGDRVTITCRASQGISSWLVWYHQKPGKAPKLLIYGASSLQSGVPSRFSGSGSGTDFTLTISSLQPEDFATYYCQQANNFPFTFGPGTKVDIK
27

Thanks! And anti-KDR monoclonal antibody 33D5 (antibody, V domains shown, Fully human mAb from XenoMouse (IgG2 or IgG4 strain); hybridoma supernatant) VH: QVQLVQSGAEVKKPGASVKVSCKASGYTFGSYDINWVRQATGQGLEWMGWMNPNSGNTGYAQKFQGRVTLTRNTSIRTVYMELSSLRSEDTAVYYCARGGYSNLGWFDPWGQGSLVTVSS VL: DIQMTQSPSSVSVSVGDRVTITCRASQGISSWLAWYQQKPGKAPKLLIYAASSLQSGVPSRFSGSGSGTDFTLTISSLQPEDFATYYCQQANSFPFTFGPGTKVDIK ?
24
